target: Melatonin receptor (Gallus gallus, UniProt P49288+P51050+P49285); assay: Effect of compound on Melatonin receptor in chicken brain in the presence of GTP-gamma-S
pKi: −log10 of the molar value.
Property Measured: pKi

Smiles Text: CCC(=O)NCCc1c(OC)ccc2ccccc12
Test Result: 8.54

====

Each entry below carries its recorded log10 Ki.
biological target: Melatonin receptor (Gallus gallus, UniProt P49288+P51050+P49285); test: Competitive binding by the displacement of 2-[125I]- Iodomelatonin binding from melatonin receptors in chicken brain membranes; assay type: cell membranes, Membrane
Property Measured: log10 Ki (log10 of the value in nM)

Compound: COc1ccc(Br)cc1CCNC(C)=O
Experimental Target: Melatonin receptor (Gallus gallus, UniProt P49288+P51050+P49285)
log10 Ki: 1.62
//
Compound: COc1ccc2ccc(OC)c(CCNC(C)=O)c2c1
Experimental Target: Melatonin receptor (Gallus gallus, UniProt P49288+P51050+P49285)
log10 Ki: -1.00
//
Compound: COc1ccc2ccccc2c1CCNC(=O)C(F)(F)F
Experimental Target: Melatonin receptor (Gallus gallus, UniProt P49288+P51050+P49285)
log10 Ki: -0.27
//
Compound: CCc1ccc(OC)c(CCNC(C)=O)c1
Experimental Target: Melatonin receptor (Gallus gallus, UniProt P49288+P51050+P49285)
log10 Ki: 2.34
//
Compound: COc1ccc2ccccc2c1CC(C)NC(C)=O (stereo not drawn)
Experimental Target: Melatonin receptor (Gallus gallus, UniProt P49288+P51050+P49285)
log10 Ki: 2.62
//
Compound: CC(=O)NCCc1cccc2ccccc12
Experimental Target: Melatonin receptor (Gallus gallus, UniProt P49288+P51050+P49285)
log10 Ki: 2.51
//
Compound: CCC(=O)NCCc1cc(Br)ccc1OC
Experimental Target: Melatonin receptor (Gallus gallus, UniProt P49288+P51050+P49285)
log10 Ki: 0.90
//
Compound: COc1ccc2ccccc2c1CCNC(C)=O
Experimental Target: Melatonin receptor (Gallus gallus, UniProt P49288+P51050+P49285)
log10 Ki: 0.43
//
Compound: CCCCC(=O)NCCc1c(OC)ccc2ccccc12
Experimental Target: Melatonin receptor (Gallus gallus, UniProt P49288+P51050+P49285)
log10 Ki: 2.37
//
Compound: COc1ccc(OC)c(CCNC(C)=O)c1
Experimental Target: Melatonin receptor (Gallus gallus, UniProt P49288+P51050+P49285)
log10 Ki: 1.84
//
Compound: CCC(=O)NCCc1c(OC)ccc2ccccc12
Experimental Target: Melatonin receptor (Gallus gallus, UniProt P49288+P51050+P49285)
log10 Ki: -0.17
//
Compound: COc1ccc(OC)c(CCNC(=O)C2CC2)c1
Experimental Target: Melatonin receptor (Gallus gallus, UniProt P49288+P51050+P49285)
log10 Ki: 2.59
//
Compound: COc1ccc(C)cc1CCNC(C)=O
Experimental Target: Melatonin receptor (Gallus gallus, UniProt P49288+P51050+P49285)
log10 Ki: 2.28
//
Compound: COc1ccc2ccccc2c1CCNC(=O)C1CC1
Experimental Target: Melatonin receptor (Gallus gallus, UniProt P49288+P51050+P49285)
log10 Ki: 1.29
//
Compound: CCCC(=O)NCCc1c(OC)ccc2ccccc12
Experimental Target: Melatonin receptor (Gallus gallus, UniProt P49288+P51050+P49285)
log10 Ki: 0.14
//
Compound: COc1ccc2ccc(OC)c(CCNC(=O)C3CC3)c2c1
Experimental Target: Melatonin receptor (Gallus gallus, UniProt P49288+P51050+P49285)
log10 Ki: -1.30
//
Compound: CCC(=O)NCCc1c(OC)ccc2ccc(OC)cc12
Experimental Target: Melatonin receptor (Gallus gallus, UniProt P49288+P51050+P49285)
log10 Ki: -1.15
//
Compound: CCC(=O)NCCc1cc(OC)ccc1OC
Experimental Target: Melatonin receptor (Gallus gallus, UniProt P49288+P51050+P49285)
log10 Ki: 1.24
//
Compound: COc1cccc(CCNC(C)=O)c1
Experimental Target: Melatonin receptor (Gallus gallus, UniProt P49288+P51050+P49285)
log10 Ki: 2.40
//
Compound: COc1ccc2ccc(OC)c(CCNC(=O)C(F)(F)F)c2c1
Experimental Target: Melatonin receptor (Gallus gallus, UniProt P49288+P51050+P49285)
log10 Ki: -0.40
//
Compound: COc1ccccc1CCNC(C)=O
Experimental Target: Melatonin receptor (Gallus gallus, UniProt P49288+P51050+P49285)
log10 Ki: 2.33

Each recorded value in this set is attributed to ChEMBL document CHEMBL1128682.
